# testTarget: cloned human P2Y1 receptors (Homo sapiens (Human))
# testProtocol: Binding Assay B - Scintillation Proximity Assay (SPA) for P2Y1 binding, [33P] 2MeS-ADP
# experimentalConditions: SPA, 0.3 nM [33P] 2MeS-ADP, Cheng-Prusoff; read-out: P2Y1 Ki (nM) using binding assay B
Flag rule - Ki less than 10 nM flags True; the remaining entries get False.

CC1(C)CN(c2ccccc2NC(=O)Nc2ccc(OC(F)(F)F)cc2)c2c(O)ccc(-c3ccncc3)c21 = True

Q) Strictly below 10 nM in Ki? `CCC1(CC)CN(c2ccccc2NC(=O)Nc2ccc(OC(F)(F)F)cc2)c2c1ccc(F)c2O`
A) False

Q) Record `CC1(C)CN(c2ccccc2NC(=O)Nc2ccc(OC(F)(F)F)cc2)c2c(O)ccc(-c3cc(F)cc(F)c3)c21` : is its Ki strictly below 10 nM?
A) True

Q) Does `CC1(C)CN(c2ccccc2NC(=O)Nc2ccc(OC(F)(F)F)cc2)c2c(O)ccc(-c3ccc(C(F)(F)F)cc3)c21` have Ki strictly under 10 nM?
A) True

Q) Hello, I'm reviewing records and need to know if Ki of `CC1(C)CN(c2ccccc2NC(=O)Nc2ccc(OC(F)(F)F)cc2)c2c(O)c(F)cc(CC(F)(F)F)c21` is below 10 nM. Could you check?
A) True

Q) In plain terms, does `CC1(C)CN(c2ccccc2NC(=O)NC2CCN(CC(F)(F)F)CC2)c2c(O)ccc(C(F)(F)F)c21` come in under 10 nM for Ki?
A) True

Q) Does this compound meet the criterion Ki < 10 nM? `Cc1cc(-c2c(F)cc(O)c3c2C(C)(C)CN3c2ccccc2NC(=O)Nc2ccc(OC(F)(F)F)cc2)ccc1F`
A) False

Q) Identify whether the compound `CC1(C)CN(c2ccccc2NC(=O)Nc2nc3ccc(F)cc3s2)c2c(O)ccc(-c3nc4cc(Cl)ccc4s3)c21` records Ki below 10 nM.
A) False

====

# testTarget: cloned human P2Y1 receptors (Homo sapiens (Human), UniProt P47900)
# Sequence (P47900 whole entry): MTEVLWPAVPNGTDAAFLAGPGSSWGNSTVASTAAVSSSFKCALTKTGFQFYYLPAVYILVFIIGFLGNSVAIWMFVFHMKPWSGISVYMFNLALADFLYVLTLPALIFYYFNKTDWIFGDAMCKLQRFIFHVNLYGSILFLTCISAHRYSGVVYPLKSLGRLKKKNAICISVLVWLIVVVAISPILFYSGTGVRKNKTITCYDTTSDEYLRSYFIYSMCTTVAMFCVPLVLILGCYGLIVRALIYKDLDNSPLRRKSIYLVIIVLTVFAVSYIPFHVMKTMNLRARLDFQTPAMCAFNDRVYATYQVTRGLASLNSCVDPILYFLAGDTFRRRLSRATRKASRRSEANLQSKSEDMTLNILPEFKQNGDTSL
# testProtocol: Binding Assay B - Scintillation Proximity Assay (SPA) for P2Y1 binding, [33P] 2MeS-ADP
# experimentalConditions: SPA, 0.3 nM [33P] 2MeS-ADP, Cheng-Prusoff; read-out: P2Y1 Ki (nM) using binding assay B
# Description: Binding Assay B—Scintillation Proximity Assay (SPA) for P2Y1 Binding A SPA membrane binding assay was used to identify inhibitors of [^33P] […] Reactions were allowed to proceed to completion at room temperature for 1 hour followed by centrifugation of the plate for 5 min. About 40 μL of the aqueous solution was aspirated. Plates were sealed and the [^33P]
Give measured Ki for each item. Keep answers brief.
Give bare numbers, in nM.

Answered cases to consult:
Cc1noc(-c2ccc(O)c3c2C(C)(C)CN3c2ccccc2NC(=O)Nc2ccc(OC(F)(F)F)cc2)n1 = 20.7
CCOC(=O)c1ccc(O)c2c1C(C)(C)CN2c1ccccc1NC(=O)Nc1ccc(OC(F)(F)F)cc1 = 8.6
CC1(C)CN(c2ccccc2NC(=O)Nc2ccc(OC(F)(F)F)cc2)c2c(O)cc(F)c(-c3cnc(Cl)cn3)c21 = 43.1

Read the next record carefully.
Q) Determine from records and report Ki for `CC1(C)CN(c2ccccc2NC(=O)Nc2ccc(OC(F)(F)F)cc2)c2c(O)ccc(-c3nc4ccc(Cl)cc4o3)c21`
A) 65.1

====

# System: human platelet rich plasma (PRP)
# testProtocol: ADP induced platelet aggregation assay
# experimentalConditions: Homo sapiens, Platelet, 5 min, read-out: PA IC50 (μM) @ 10 μM ADP, human PRP, 10 μM ADP, AUC at 5 minute
Hi all, reminder that labels come from IC50, split as lower level = under 0.3 µM, middle level = from 0.3 µM up to 0.5 µM, upper level = 0.5 µM and over

Example entries and their recorded answers appear below.
COc1ccc2nc(NC(=O)Nc3ccccc3N3CC(C)(C)c4c(-c5nc6ccc(Cl)cc6o5)ccc(O)c43)sc2n1 = middle level
CC1(C)CN(c2ccccc2NC(=O)Nc2nc3ccc(F)cc3s2)c2c(O)cc(F)c(-c3ccc(Cl)cc3)c21 = middle level
CCC1(CC)CN(c2ccccc2NC(=O)Nc2ccc(C3CCCN3CC(C)C)cc2)c2c(O)cccc21 (stereo not shown) = middle level
CC1(C)CN(c2ccccc2NC(=O)Nc2csc(C(F)(F)F)n2)c2c(O)ccc(-c3ccc(F)cc3)c21 = lower level

Q) Form field 'band' for `CC1(C)CN(c2ccccc2NC(=O)Nc2ccc(OC(F)(F)F)cc2)c2c(O)cc(F)c(-c3cc(C(F)(F)F)no3)c21`
A) upper level

Q) Lab note: which band did `CC1(C)CN(c2ccccc2NC(=O)Nc2nc3ccc(Cl)nc3s2)c2c(O)cc(F)c(-c3ccc(Cl)cc3)c21` land in?
A) middle level

Q) Which bin, given its IC50, does `C=C(C)c1ccc(-c2c(F)cc(O)c3c2C(C)(C)CN3c2ccccc2NC(=O)Nc2ccc(OC(F)(F)F)cc2)cc1` occupy?
A) lower level

Q) Pick a category. Item: `CC1(C)CN(c2ccccc2NC(=O)Nc2nc3ccc(Cl)nc3s2)c2c(O)cc(F)c(-c3nc4cc(F)ccc4s3)c21`
A) lower level

Q) Form: Item = CC1(C)CN(c2ccccc2NC(=O)Nc2ccc(OC(F)(F)F)cc2)c2c(O)ccc(C3=NCC(C(F)(F)F)O3)c21 (stereo not shown) ; Class = ?
A) upper level

Q) Exercise: read the entry `CCN1CCc2nc(NC(=O)Nc3ccccc3N3CC(C)(C)c4c(C(F)(F)F)ccc(O)c43)sc2C1` and state which class it falls under.
A) upper level

Q) Category of `CCC1(CC)CN(c2ccccc2NC(=O)Nc2ccc(C3CCN(CC(C)(C)C)CC3)cc2)c2c1ccc(F)c2O` , please.
A) upper level

Q) Assign a category based on measured IC50 for `CC1(C)CN(c2ccccc2NC(=O)Nc2nc3ccc(Cl)cc3s2)c2c(O)ccc(-c3nc4ccc(F)cc4s3)c21` and give only the class name.
A) lower level

Q) Band of `CCSc1nsc(NC(=O)Nc2ccccc2N2CC(CC)(CC)c3c(F)ccc(O)c32)n1` ?
A) upper level

Q) Lab note: sort `CC(C)(C)c1nc(-c2c(F)cc(O)c3c2C(C)(C)CN3c2ccccc2NC(=O)Nc2nc3ccc(F)cc3s2)co1` into the matching IC50 band.
A) upper level

Q) The entry to classify is `CC1(C)CN(c2ccccc2NC(=O)Nc2ccc(OC(F)(F)F)cc2)c2c(O)ccc(-c3ccc(F)c(F)c3)c21` ; which class holds it?
A) middle level
